The origin of these recorded values is ChEMBL document CHEMBL5705886.

tested on: KCL-22; test: Antiproliferative activity against human KCL-22 cells assessed as inhibition of cell viability measured for 6 to 7 days by cell titer glo assay; assay type: functional, cell-based
Endpoint Name: EC50 (nM)
Give a bare numeral; the unit nM is implied.

Task: Fill in: EC50 on KCL-22, entry CCn1cc(-c2ccnc3[nH]c(-c4cccc(CN(C)C)c4)cc23)c(-c2ccc(NC(=O)N(C)C)cc2)n1
Output: 5

====

assay: Antiproliferative activity against human CEM/C1 cells assessed as inhibition of cell viability measured for 6 to 7 days by cell titer glo assay; assay type: functional, cell-based
Endpoint Name: pEC50
Remember, pEC50 is on a log scale: it is -log10 of the molar concentration.

Task: Indicate its recorded pEC50; the molecule in question is CCn1cc(-c2ccnc3[nH]c(-c4cccc(CN(C)C)c4)cc23)c(-c2ccc(NC(=O)N(C)C)cc2)n1
Output: 8.22
